# Format: physicochemical
# test context: pH 4.5, 40° C., 0 day
Reported 0 day Purity (%) values are given for each entry in this list.
property: 0 day Purity (%)

> print(dat)
                                  substance  test.result
1  HdAEGTFTTSDL SKQNleEEEAVR LFIEWLKQGG PSSGAPPPC-PEG40K [Sample 13]         99.8
2  HdAEGTFTSDL SKQNleEEEAVR LFIEWLKQGG PSSGAPPPS-NH2 [Sample 3]         98.9
3  HdAEGTFTSDL SKQMEEEAVR LFIEWLKNGG PSSGAPPPC-NH2 [Sample 2-1]         98.0

----------
# test: Stability of Exendin-4 derivatives under basic conditions (PBS pH 7.4, 40° C., LC-MS purity)
# Assay type: physicochemical
# test context: 0 day
Where no end group is shown, it is not given here. [ ]: non-standard residue; d: D form. code ∗ = not defined here

substance	0 day Purity (%)
HGEGTFTSDLSKQMEEEAVRLFIEWLKQGGPSSGAPPPK* [Sample 5]	98.3
HdAEGTFTSDL SKQMEEEAVR LFIEWLKNGG PSSGAPPPC-PEG40K [Sample 4]	99.7
HdAEGTFTSDL SKQNleEEEAVR LFIEWLKQGG PSSGAPPPS-NH2 [Sample 3]	98.9
HdAEGTFTTSDL SKQNleEEEAVR LFIEWLKQGG PSSGAPPPC-PEG40K [Sample 13]	99.8
HdAEGTFTSDL SKQMEEEAVR LFIEWLVKGG PSSGAPPPK* (H[dA]EGTFTSDLSKQMEEEAVRLFIEWLVKGGPSSGAPPPK(code ∗); reading uncertain; also: C-terminal modification (*)) [Sample 11]	98.3
HdAEGTFTTSDL SKQNleEEEAVR LFIEWLKQGG PSSGAPPPC(AM) [Sample 9-2]	99.0

----------
# Type: physicochemical
# test context: pH 4.5, 40° C., 10 days, compared with the corresponding sample at 0 day
Where no end group is shown, it is not given here. [ ]: non-standard residue; d: D form. code ∗ = not defined here
property: 10 days Relative Purity (%)

substance	unit string	test result
HdAEGTFTSDL SKQNleEEEAVR LFIEWLKQGG PSSGAPPPS-NH2 [Sample 3]	%	99.80
HdAEGTFTTSDL SKQNleEEEAVR LFIEWLKQGG PSSGAPPPC-PEG40K [Sample 13]	%	99.90
HdAEGTFTSDL SKQMEEEAVR LFIEWLKNGG PSSGAPPPC-NH2 [Sample 2-1]	%	91.43
HGEGTFTSDLSKQMEEEAVRLFIEWLKQGGPSSGAPPPK* [Sample 5]	%	96.74
HdAEGTFTSDL SKQMEEEAVR LFIEWLKNGG PSSGAPPPC-PEG40K [Sample 4]	%	99.60
HdAEGTFTTSDL SKQNleEEEAVR LFIEWLKQGG PSSGAPPPC(AM) [Sample 9-2]	%	99.80
HdAEGTFTSDL SKQMEEEAVR LFIEWLVKGG PSSGAPPPK* (H[dA]EGTFTSDLSKQMEEEAVRLFIEWLVKGGPSSGAPPPK(code ∗); reading uncertain; also: C-terminal modification (*)) [Sample 11]	%	97.56

----------
Reported 5 days Relative Purity (%) values for the following substances.
# test: Stability of Exendin-4 derivatives under basic conditions (PBS pH 7.4, 40° C., LC-MS purity)
# Type: physicochemical
# test context: 5 days, compared with the corresponding sample at 0 day
Where no end group is shown, it is not given here. [ ]: non-standard residue; d: D form. code ∗ = not defined here
property: 5 days Relative Purity (%)

substance	test result
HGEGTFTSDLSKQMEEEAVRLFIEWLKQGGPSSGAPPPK* [Sample 5]	97.36
HdAEGTFTTSDL SKQNleEEEAVR LFIEWLKQGG PSSGAPPPC(AM) [Sample 9-2]	99.80
HdAEGTFTSDL SKQMEEEAVR LFIEWLKNGG PSSGAPPPC-PEG40K [Sample 4]	99.30
HdAEGTFTSDL SKQMEEEAVR LFIEWLVKGG PSSGAPPPK* (H[dA]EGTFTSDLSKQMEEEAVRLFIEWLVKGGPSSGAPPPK(code ∗); reading uncertain; also: C-terminal modification (*)) [Sample 11]	98.78
HdAEGTFTTSDL SKQNleEEEAVR LFIEWLKQGG PSSGAPPPC-PEG40K [Sample 13]	99.50
HdAEGTFTSDL SKQNleEEEAVR LFIEWLKQGG PSSGAPPPS-NH2 [Sample 3]	99.70
